# studyTarget: Recombinant human HDAC1 (Homo sapiens)
# Construct: FLAG (C); made in house
# Sequence (Q13547 whole entry): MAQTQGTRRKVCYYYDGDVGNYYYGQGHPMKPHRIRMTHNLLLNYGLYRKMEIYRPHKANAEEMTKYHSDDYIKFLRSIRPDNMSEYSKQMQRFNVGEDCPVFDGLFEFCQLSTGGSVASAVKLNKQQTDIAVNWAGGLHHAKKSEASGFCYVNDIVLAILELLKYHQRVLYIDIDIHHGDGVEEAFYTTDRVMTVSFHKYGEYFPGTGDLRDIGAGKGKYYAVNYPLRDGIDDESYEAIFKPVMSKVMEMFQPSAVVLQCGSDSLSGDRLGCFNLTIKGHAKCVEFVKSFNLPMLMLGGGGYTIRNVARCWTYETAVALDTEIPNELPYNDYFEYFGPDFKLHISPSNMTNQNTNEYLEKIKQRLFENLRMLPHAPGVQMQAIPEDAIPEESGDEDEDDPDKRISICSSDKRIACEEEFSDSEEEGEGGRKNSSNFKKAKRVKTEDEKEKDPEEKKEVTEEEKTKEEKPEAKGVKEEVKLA
# assayProcedure: Human HDAC enzyme inhibitor Fluor-de-Lys assay, HDAC1
# Type: biochemical
# runConditions: recombinant human HDAC1, Fluor-de-Lys assay
# Procedure: Human HDAC Enzyme Inhibitor Fluor-De-Lys Assay Recombinant human HDAC8 (BML-SE145-0100) and HDAC10 (BML-SE559-0050) enzymes, HDAC substrates BML-KI104 and BML-KI178, and HDAC developer solutions BML-KI105 and BML-KI176 were purchased from Enzo Life Sciences. […] The histone deacetylase activities of HDAC1, HDAC2, HDAC3, HDAC6, and HDAC8 were measured in modified FLUOR DE LYS assays in 384-well format. […] The released AMC is then detected by its fluorescence. […]
propertyLabel: log10 of IC50 (log10 of the value in nM)
Record value = log10 of IC50 given in nM.

Consider the worked cases shown below.
>  <compound>
CCC(=O)CCCCC[C@H](NC(=O)C1=NOC2(CCN(C)CC2)C1)c1ncc(-c2ccc(-c3ccccn3)cc2OC)o1 [Compound 391]

>  <studyTarget>
Recombinant human HDAC1 (Homo sapiens)

>  <recordedResult>
0.98

$$$$
>  <compound>
CCN[C@@H](CCCCCC(=O)CC)c1ncc(-c2cc3ccc(C)nc3cc2OC)[nH]1 [Compound 403]

>  <studyTarget>
Recombinant human HDAC1 (Homo sapiens)

>  <recordedResult>
2.39

$$$$
>  <compound>
CCC(=O)CCCCC[C@H](NC(=O)CC1CC2(CNC2)C1)c1nnc(-c2cc3ccccc3nc2OC)o1 [Compound 301]

>  <studyTarget>
Recombinant human HDAC1 (Homo sapiens)

>  <recordedResult>
1.39

$$$$
>  <compound>
CCC(=O)CCCCC[C@H](NC(=O)[C@H]1CC12CCN(C)CC2)c1ncc(-c2ccc(-n3nc(C)cc3C)cc2)[nH]1 [Compound 260]

>  <studyTarget>
Recombinant human HDAC1 (Homo sapiens)

>  <recordedResult>
1.12

$$$$
>  <compound>
CCC(=O)CCCCC[C@H](NC(=O)CC1CC2(CNC2)C1)c1ncc(-c2ccccc2)[nH]1 [Compound 297]

>  <studyTarget>
Recombinant human HDAC1 (Homo sapiens)

>  <recordedResult>
1.45

$$$$

Q) Output reported log10 of IC50 of the compound CCC(=O)CCCCC[C@H](NC(=O)C1=NOC2(CCN(C)CC2)C1)c1ncc(-c2ccc(-c3cccnc3)cc2OC)o1 [Compound 222] on Recombinant human HDAC1 (Homo sapiens).
A) 0.21

Q) Give log10 of IC50 only, for CCC(=O)CCCCC[C@H](NC(=O)C1=NOC2(CCN(S(C)(=O)=O)CC2)C1)c1nnc(-c2cc3ccccc3nc2OC)o1 [Compound 371] , using Recombinant human HDAC1 (Homo sapiens) data.
A) 1.94

Q) State recorded log10 of IC50 with Recombinant human HDAC1 (Homo sapiens), entry CCC(=O)CCCCC[C@H](NC(=O)C1CC12CCN(CC)CC2)c1nc(-c2ccc(F)cc2)[nH]c1-c1cnn(C)c1 (some centres unmarked) [Compound 248] , no comment.
A) 0.77

Q) Determine reported log10 of IC50 for CCC(=O)CCCCC[C@H](NC(=O)C1=NOC2(CCN(C)CC2)C1)c1ncc(-c2ccc(-c3cnccn3)cc2OC)o1 [Compound 237] ; test system: Recombinant human HDAC1 (Homo sapiens).
A) 0.38

Q) Please look at CCC(=O)CCCCC[C@H](NC(=O)C1CC12CCN(CC)CC2)c1nc(-c2ccc(F)cc2)[nH]c1-c1cn[nH]c1 (some centres unmarked) [Compound 249] and tell me its recorded log10 of IC50 on Recombinant human HDAC1 (Homo sapiens).
A) 1.24

Q) Please tell me the measured log10 of IC50 for CCC(=O)CCCCC[C@H](NC(=O)[C@H]1CC12CCN(C)CC2)c1nnc(-c2cc3ccccc3nc2OC)o1 [Compound 306] ; system: Recombinant human HDAC1 (Homo sapiens).
A) 1.11

Q) Given CCC(=O)CCCCC[C@H](NC(=O)C1=NOC2(CCN(S(C)(=O)=O)CC2)C1)c1ncc(-c2ccccc2)[nH]1 [Compound 383] , report its log10 of IC50 on Recombinant human HDAC1 (Homo sapiens).
A) 1.98

Q) Supply log10 of IC50 measured with Recombinant human HDAC1 (Homo sapiens) for CCC(=O)CCCCC[C@H](NC(=O)C1CC12CCN(CC)CC2)c1nc(-c2ccc(F)cc2)[nH]c1-c1cccc(OC)c1 (some centres unmarked) [Compound 246] .
A) 2.25

Q) Return reported log10 of IC50 for target or system Recombinant human HDAC1 (Homo sapiens), item CCC(=O)CCCCCC(NC(=O)C1CCC2(CC1)OC(=O)c1ccncc12)c1nnc(-c2cc3ccccc3nc2OC)o1 (centres unmarked) [Compound 363] .
A) 1.93

Q) State recorded log10 of IC50 with Recombinant human HDAC1 (Homo sapiens), entry CCC(=O)CCCCC[C@H](NC(=O)C1CC12CC1CCC(C2)N1C)c1ncc(-c2ccc3ncccc3c2)[nH]1 (single isomer, unassigned) [Compound 242] , no comment.
A) 0.60

Q) // fetch log10 of IC50; item: CCC(=O)CCCCCC(NC(=O)C1CC12CCN(CC)CC2)c1nc(-c2ccc(F)cc2)[nH]c1-c1ccnn1C (centres unmarked) [Compound 253] ; system: Recombinant human HDAC1 (Homo sapiens)
A) 1.48

Q) Lab note: record log10 of IC50 of CCC(=O)CCCCC[C@H](NC(=O)[C@H]1CC[C@@]2(CC1)OC(=O)c1cccnc12)c1ncc(-c2ccccc2)[nH]1 [Compound 375] tested on Recombinant human HDAC1 (Homo sapiens).
A) 2.07

Q) Send back Recombinant human HDAC1 (Homo sapiens) log10 of IC50 of CCC(=O)CCCCC[C@H](NC(=O)[C@H]1CC12CCN(C)CC2)c1ncc(-c2cn(C)c3ccccc23)[nH]1 [Compound 264] only.
A) 0.25

Q) Give log10 of IC50 for this entry on Recombinant human HDAC1 (Homo sapiens): CCC(=O)CCCCC[C@H](NC(=O)C1CC12CCOCC2)c1ncc(-c2cc3ccc(C)nc3cc2OC)[nH]1 (single isomer, unassigned) [Compound 413]
A) 1.21

Q) System Recombinant human HDAC1 (Homo sapiens). Read-out log10 of IC50. Item CCC(=O)CCCCC[C@H](NC(=O)C1=NOC2(CCN(C)CC2)C1)c1ncc(-c2cc3cccnc3cc2OC)o1 [Compound 223] . Report value.
A) 0.19

Q) Report its log10 of IC50 with Recombinant human HDAC1 (Homo sapiens) as the test system: CCC(=O)CCCCC[C@H](NC(=O)C1=NOC2(CCN(CC3CC3)CC2)C1)c1ncc(-c2cc3ccc(=O)n(C)c3cc2F)o1 [Compound 387]
A) 1.41

Q) Param request: log10 of IC50 | system Recombinant human HDAC1 (Homo sapiens) | item CCC(=O)CCCCC[C@H](NC(=O)C1NC(=O)CC12CN(C)C2)c1ncc(-c2cc3ccccc3nc2OC)[nH]1 (some centres unmarked) [Compound 317]
A) -0.06

Q) Lab note: Recombinant human HDAC1 (Homo sapiens) assay, enter log10 of IC50 for CCC(=O)CCCCC[C@H](NC(=O)[C@H]1CC12CCN(C)CC2)c1ncc(-c2ccc(C(=O)NC3CCOC3)cc2)[nH]1 (some centres unmarked) [Compound 258] here
A) 0.89

Q) GET log10 of IC50 | system: Recombinant human HDAC1 (Homo sapiens) | item: CCC(=O)CCCCC[C@H](NC(=O)C1CC12CCN(CC)CC2)c1nc(-c2ccc(F)cc2)[nH]c1-c1ccn(C)c1 (some centres unmarked) [Compound 251]
A) 0.44

Q) # return log10 of IC50 of CCC(=O)CCCCC[C@H](NC(=O)[C@@H]1CC12CCN(C)CC2)c1nnc(-c2cc3ccccc3nc2OC)o1 [Compound 305] (system: Recombinant human HDAC1 (Homo sapiens))
A) 1.67

----------
# studyTarget: Recombinant human HDAC8 (Homo sapiens, UniProt Q9BY41)
# Construct: purchased Enzo Life Sciences BML-SE145-0100
# Sequence (Q9BY41 1-377): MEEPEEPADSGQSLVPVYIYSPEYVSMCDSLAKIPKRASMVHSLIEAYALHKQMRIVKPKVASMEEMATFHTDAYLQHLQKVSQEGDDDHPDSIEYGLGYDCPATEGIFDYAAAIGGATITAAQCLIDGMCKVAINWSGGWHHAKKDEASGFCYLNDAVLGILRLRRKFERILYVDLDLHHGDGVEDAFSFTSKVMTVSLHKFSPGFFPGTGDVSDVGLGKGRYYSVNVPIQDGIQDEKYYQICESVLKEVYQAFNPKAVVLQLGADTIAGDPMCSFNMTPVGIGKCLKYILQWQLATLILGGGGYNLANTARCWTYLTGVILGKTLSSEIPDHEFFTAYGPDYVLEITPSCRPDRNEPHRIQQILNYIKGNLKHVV
# assayProcedure: Human HDAC enzyme inhibitor Fluor-de-Lys assay, HDAC8
# Format: biochemical
# runConditions: recombinant human HDAC8, Fluor-de-Lys assay
Decision: IC50 beneath 9 µM gives true (1); IC50 meeting or exceeding 9 µM gives false (0).

Example results:
>  <molecule>
CCC(=O)CCCCC[C@H](NC(=O)[C@@H]1CC12CCN(C)CC2)c1ncc(-c2cc3ccccc3nc2OC)[nH]1 (single isomer, unassigned) [Compound 320]

>  <labelValue>
false (0)

$$$$
>  <molecule>
CCC(=O)CCCCC[C@H](NC(=O)C1=NOC2(CCN(C)CC2)C1)c1nnc(-c2cc3ccccc3nc2OC)o1 [Compound 370]

>  <labelValue>
true (1)

$$$$
>  <molecule>
CCC(=O)CCCCC[C@H](NC(=O)CC1CC2(C1)CN(C)C2)c1ncc(-c2cc3ccccc3nc2OC)[nH]1 [Compound 314]

>  <labelValue>
true (1)

$$$$

Q) # TODO verify IC50 < 9 µM strictly for this molecule: CCCC(=O)CCCCC[C@H](N)c1ncc(-c2cc3ccc(C)nc3cc2OC)[nH]1 [Compound A30]
A) true (1)

Q) Threshold test, IC50 < 9 µM: CCC(=O)CCCCC[C@H](NC(=O)C1CC12CCNCC2)c1nnc(-c2cc3ccccc3nc2OC)o1 (stereo partly shown) [Compound 303]
A) false (0)
